Please go through the items and note down their IC50.
measuredOn: Protein cereblon/Leucine-rich repeat serine/threonine-protein kinase 2 (Mus musculus, UniProt Q5S006+Q8C7D2, G2019S)
protocolNotes: Protac activity at CRBN/LRRK2 G2019S homozygous knock-in mutant in mouse MEF cells assessed as induction of LRRK2 degradation by measuring reduction in LRRK2 phosphorylation at S935 residue by Invitrogen Adapta assay
Entry rule: numbers only, all in nM.

Entry CNc1nc(Nc2ccc(C(=O)N3CCN(C(=O)CCCCCCCCOc4cccc5c4C(=O)N(C4CCC(=O)NC4=O)C5=O)CC3)cc2OC)ncc1C(F)(F)F (stereo not given) : reported IC50 = ? 1

Input CNc1nc(Nc2ccc(C(=O)N3CCN(C(=O)CCOCCOCCOCCOCCNc4cccc5c4C(=O)N(C4CCC(=O)NC4=O)C5=O)CC3)cc2OC)ncc1C(F)(F)F (stereo not given) 2

Input CC1(Oc2ccc3[nH]nc(-c4cc(N5CCN(C(=O)CCOCCOCCOCCOCCNc6cccc7c6C(=O)N(C6CCC(=O)NC6=O)C7=O)CC5)ncn4)c3c2)CC1 (stereo not given) 0.98

Input CC1(Oc2ccc3[nH]nc(-c4cc(N5CCN(C(=O)CCOCCNc6cccc7c6C(=O)N(C6CCC(=O)NC6=O)C7=O)CC5)ncn4)c3c2)CC1 (stereo not given) 1.08

Input CC1(Oc2ccc3[nH]nc(-c4cc(N5CCN(C(=O)CCOCCNc6cccc7c6C(=O)N(C6CCC(=O)NC6=O)C7)CC5)ncn4)c3c2)CC1 (stereo not given) 1.47
